Assignment: determine reported solubility for the given compounds.
Assay: Aqueous solubility of the compound
Settings: aqueous medium, not specified further
Give bare numbers, in µg/mL.

Take a look at these entries with their results.
1) CSc1nc2ccccc2n1C | 1.14
2) FC(F)(F)c1nc2cc(Cl)c(Cl)cc2[nH]1 | 0.0025

Now for a further compound.
Supply reported solubility belonging to this compound: `FC(F)(F)c1nc2ccccc2[nH]1`
0.992

* * *

Field: Ratio. Provide a value for each of the molecules that follow.
Test system: Caco-2
Test: Influx ratio of permeability from basolateral to apical side over apical to basolateral side in human Caco2 cells at 100 uM up to 90 mins
Settings: caco-2, 1.5 h
Numbers only.

In the examples that follow, each entry is paired with its recorded Ratio.
1. COC(=O)c1ccc2[nH]c(C(F)(F)F)nc2c1 | 1.42
2. CCCSc1ccc2nc(NC(=O)OC)[nH]c2c1 [ALBENDAZOLE] | 1.35

Now take the following molecule into account.
Lab note: Caco-2 assay, enter Ratio for `CCN(CC)C(=O)COC(=O)c1ccc2nc(C(F)(F)F)n(C)c2c1` here
1.17
